These entries and their values trace back to patent US20250340529A1.

Assign pIC50 to each entry below.
biological target: PD-1/PD-L1 (Homo sapiens (Human)); test: PD-1/PD-L1 Homogeneous Time-Resolved Fluorescence (HTRF) binding assay; settings: 3 nM PD1, 10 nM PD-L1, 25° C., PBS pH 7.4
Sequence (Q9NZQ7 19-238): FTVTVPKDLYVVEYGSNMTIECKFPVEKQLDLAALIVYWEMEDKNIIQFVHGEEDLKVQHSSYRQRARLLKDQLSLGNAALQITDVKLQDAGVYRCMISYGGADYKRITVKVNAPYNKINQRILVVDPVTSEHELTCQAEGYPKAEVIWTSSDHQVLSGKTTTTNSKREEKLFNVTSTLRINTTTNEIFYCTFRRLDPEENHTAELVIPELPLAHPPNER
One number for each entry, as −log10 of the molar value.

Look at each compound and report its pIC50.
1. O=C1CC[C@@H](CN2C(=O)COc3cc(-c4cccc(-c5cccc(-c6cnc7c(c6)OCC(=O)N7C[C@@H]6CCC(=O)N6)c5Cl)c4Cl)cnc32)N1
2. O=C(O)[C@@H](CCO)NCCN1C(=O)COc2cc(-c3cccc(-c4cccc(-c5ccc6c(c5)OCC(=O)N6CCN[C@H](CCO)C(=O)O)c4Cl)c3Cl)ccc21
3. O=C1CC[C@@H](CN2C(=O)CCc3cc(-c4cccc(-c5cccc(-c6ccc7c(c6)CCC(=O)N7C[C@@H]6CCC(=O)N6)c5Cl)c4Cl)ccc32)N1
4. O=C1CC[C@H](CN2C(=O)COc3cc(-c4cccc(-c5cccc(-c6ccc7c(c6)OCC(=O)N7C[C@H]6CCC(=O)N6)c5Cl)c4Cl)ccc32)N1

1: 8.01; 2: 8.14; 3: 7.57; 4: 8.26

Suppose we examine the compound `O=C1COc2cc(-c3cccc(-c4cccc(-c5ccc6c(c5)OCC(=O)N6C[C@@H]5CCCCN5)c4Cl)c3Cl)ccc2N1C[C@@H]1CCCCN1` ; what pIC50 value has been reported? 7.97
